Values compiled from paper doi:10.1101/2021.10.07.463234v2.

Molecular target: SARS-CoV-2 Mac1 (Severe acute respiratory syndrome coronavirus 2, UniProt P0DTD1)
Experiment: biochemical
Settings: read-out: %inhibition
Counter-ions that a name gives are not always drawn.
Give inhibition at 100 µM for every item shown.
Give bare numbers, in %.

{"COMPOUND": "CS(=O)(=O)Nc1ccc([N+](=O)[O-])cc1Oc1ccccc1 [Nimesulide]", "MEASURED_METRIC": "inhibition at 100 µM", "UNITS_LABEL": "%", "RESULT_VALUE": 0}
{"COMPOUND": "CCCCCCCN(CC)CCCC(O)c1ccc(NS(C)(=O)=O)cc1 (centres unmarked) [Ibutilide Fumarate]", "MEASURED_METRIC": "inhibition at 100 µM", "UNITS_LABEL": "%", "RESULT_VALUE": 0}

# per-item lookup of inhibition at 100 µM; items listed below
1. C[C@]1(COc2ccc(N3CCC(Oc4ccc(OC(F)(F)F)cc4)CC3)cc2)Cn2cc([N+](=O)[O-])nc2O1
2. C#CC1(O)CC[C@H]2[C@@H]3CCC4=CC(=O)CC[C@@H]4[C@H]3CC[C@@]21CC (some centres unmarked)

RESULT:
22.1
0

# per-item lookup of inhibition at 100 µM; items listed below
1. N[C@@H](CCC(=O)N[C@@H](CS)C(=O)NCC(=O)O)C(=O)O
2. Cc1cc(-c2ccccc2)nnc1NCCN1CCOCC1 [Minaprine dihydrochloride]
3. C=C1/C(=C\C=C2/CCC[C@]3(C)[C@@H]([C@H](C)/C=C/[C@H](C)C(C)C)CC[C@@H]23)C[C@@H](O)C[C@@H]1O
4. O=[N+]([O-])O[C@@H]1CO[C@H]2[C@@H]1OC[C@@H]2O [Isosorbide Mononitrate]

RESULT:
1: 0; 2: 2.13; 3: 0; 4: 2.49

# per-item lookup of inhibition at 100 µM; items listed below
1. O=C(O)CCNC(=O)c1ccc(/N=N/c2ccc(O)c(C(=O)O)c2)cc1 [Balsalazide disodium]
2. C=C[C@]1(C)C[C@@H](OC(=O)CSC(C)(C)CNC(=O)[C@H](N)C(C)C)[C@]2(C)[C@H](C)CC[C@]3(CCC(=O)[C@H]32)[C@@H](C)[C@@H]1O [Valnemulin HCl]
3. C=C1/C(=C\C=C2/CCC[C@]3(C)[C@@H]([C@H](C)/C=C/[C@@H](O)C4CC4)CC[C@@H]23)C[C@@H](O)C[C@@H]1O
4. NCCc1ccc(O)c(O)c1 [Dopamine HCl]
5. CCC1(c2cccc(O)c2)CCCCN(C)C1 (centres unmarked) [Meptazinol HCl]
6. CCOC(=O)C1=C(C)NC(C)=C(C(=O)OC)C1c1cccc([N+](=O)[O-])c1 (centres unmarked)

RESULT:
1. 0
2. 23.1
3. 0
4. 39.1
5. 0
6. 4.31

====

Target: SARS-CoV-2 Mac1 (Severe acute respiratory syndrome coronavirus 2)
Assay: biochemical
Details: 100 µM; inhibitor
Counter-ions that a name gives are not always drawn.
MEASURED_METRIC: %inhibition (%)
Answers are plain numbers, in %.

Answered cases to consult:
{"MOLECULE": "CCC[C@@H]1C[C@@H](C(=O)N[C@@H]([C@H]2O[C@H](SC)[C@H](O)[C@@H](O)[C@H]2O)[C@@H](C)O)N(C)C1 [Lincomycin Hydrochloride Monohydrate]", "%inhibition / %": 16.9}
{"MOLECULE": "Fc1ccc([C@@H]2CCNC[C@H]2COc2ccc3c(c2)OCO3)cc1 [Paroxetine mesylate]", "%inhibition / %": 0}
{"MOLECULE": "CNC(=O)c1cc(Oc2ccc(NC(=O)Nc3ccc(Cl)c(C(F)(F)F)c3)c(F)c2)ccn1 [Regorafenib (BAY 73-4506)]", "%inhibition / %": 2.978}
{"MOLECULE": "COc1ccc2c(c1)c(CC(=O)O)c(C)n2C(=O)c1ccc(Cl)cc1 [Indomethacin]", "%inhibition / %": 39.29}
{"MOLECULE": "COc1cc(O)c(C(=O)Nc2nc(C(=O)NCCN(C(C)C)C(C)C)cs2)cc1OC [Acotiamide]", "%inhibition / %": 14.33}

# per-item lookup of %inhibition; items listed below
1. COc1c(N2C[C@@H]3CCCN[C@@H]3C2)c(F)cc2c(=O)c(C(=O)O)cn(C3CC3)c12 [Moxifloxacin HCl]
2. CC1(C)S[C@@H]2[C@H](NC(=O)[C@H](N)c3ccc(O)cc3)C(=O)N2[C@H]1C(=O)O [Amoxicillin Sodium]
3. CN1CCc2nc(C(=O)N[C@@H]3C[C@@H](C(=O)N(C)C)CC[C@@H]3NC(=O)C(=O)Nc3ccc(Cl)cn3)sc2C1 [Edoxaban]
4. COc1cc2nccc(Oc3ccc(NC(=O)NC4CC4)c(Cl)c3)c2cc1C(N)=O [Lenvatinib (E7080)]

RESULT:
1. 0
2. 14.1
3. 4.891
4. 22.86

# per-item lookup of %inhibition; items listed below
1. N[C@@H](Cc1cc(I)c(Oc2cc(I)c(O)c(I)c2)c(I)c1)C(=O)O [L-Thyroxine]
2. CC(C)(C)c1nc(-c2cccc(NS(=O)(=O)c3c(F)cccc3F)c2F)c(-c2ccnc(N)n2)s1 [Dabrafenib Mesylate]
3. OC[C@@H](O)[C@@H](O[C@@H]1O[C@H](CO)[C@H](O)[C@H](O)[C@H]1O)[C@H](O)[C@@H](O)CO [Lactitol monohydrate]
4. Cc1cc(C(C#N)c2ccc(Cl)cc2)c(Cl)cc1NC(=O)c1cc(I)cc(I)c1O (stereo not drawn)
5. CC(C)NCC(O)COc1ccc(CCOCC2CC2)cc1 (stereo not drawn) [Betaxolol]
6. CCOC(=O)Nc1ccc(NCc2ccc(F)cc2)cc1N [Retigabine 2HCl]

RESULT:
[10.74, 0.5368, 1.512, 12.2, 0, 8.664]

# per-item lookup of %inhibition; items listed below
1. CN1c2ccccc2C(NCCCCCCC(=O)O)c2ccc(Cl)cc2S1(=O)=O (stereo not drawn) [Tianeptine sodium]
2. N[C@@H](Cc1cc(I)c(Oc2cc(I)c(O)c(I)c2)c(I)c1)C(=O)O [Levothyroxine sodium]
3. COc1ccc(NC(=O)c2ccc(C(=N)N(C)C)cc2)c(C(=O)Nc2ccc(Cl)cn2)c1 [Betrixaban maleate]
4. CN(Cc1cnc2nc(N)nc(N)c2n1)c1ccc(C(=O)N[C@@H](CCC(=O)O)C(=O)O)cc1 [Methotrexate disodium]

RESULT:
1. 0
2. 4.124
3. 3.06
4. 0
